Task for the reader: assign each of the following compounds its reported Papp A→B at 90 min, 10 μM.
PROTOCOL_NOTES: in vitro
CONDITION_SET: human, Caco-2, pH 7.4

In: Consider the compound shown here: CN1CCN(c2cccnc2CN2CCCC2c2ccccn2)CC1 (stereo not shown) What is its recorded Papp A→B at 90 min, 10 μM?
Out: 10 to 30 ×10⁻⁶ cm/s

In: Consider the compound shown here: Cc1cccnc1C1CCCN1Cc1cn2c(N3CCN(C4CC4)CC3)cccc2n1 (stereo not shown) What is its recorded Papp A→B at 90 min, 10 μM?
Out: 0.1 to 10 ×10⁻⁶ cm/s

In: Consider the compound shown here: CN1CCN(c2c(CN3CCCC3c3ccccn3)nc3cccc(F)n23)CC1 (stereo not shown) What is its recorded Papp A→B at 90 min, 10 μM?
Out: 0.1 to 10 ×10⁻⁶ cm/s

In: Consider the compound shown here: CN1CCN(c2cccc3nc(C4CCCN4Cc4ccccn4)[nH]c23)CC1 (stereo not shown) What is its recorded Papp A→B at 90 min, 10 μM?
Out: 0.1 to 10 ×10⁻⁶ cm/s

In: Consider the compound shown here: CN1CCN(c2c(CN3CCCC3c3nccn3C)nc3ccccn23)CC1 (stereo not shown) What is its recorded Papp A→B at 90 min, 10 μM?
Out: 0.1 to 10 ×10⁻⁶ cm/s

In: Consider the compound shown here: Cc1cccnc1C1CCCN1Cc1nccn1CC1CCN(CC(F)(F)F)CC1 (stereo not shown) What is its recorded Papp A→B at 90 min, 10 μM?
Out: 10 to 30 ×10⁻⁶ cm/s

In: Consider the compound shown here: CN1CCN(c2c(CN3CCCC3c3ccccn3)nc3ccc(F)cn23)CC1 (stereo not shown) What is its recorded Papp A→B at 90 min, 10 μM?
Out: 10 to 30 ×10⁻⁶ cm/s

In: Consider the compound shown here: Cc1c(CN2CCCC2c2ncccc2Cl)nc2cccc(N3CCN(C)CC3)n12 (stereo not shown) What is its recorded Papp A→B at 90 min, 10 μM?
Out: 0.1 to 10 ×10⁻⁶ cm/s

In: Consider the compound shown here: Cc1cccnc1C1CCCN1Cc1nc2cccc(N3CCN(C)CC3)c2s1 (stereo not shown) What is its recorded Papp A→B at 90 min, 10 μM?
Out: 10 to 30 ×10⁻⁶ cm/s

In: Consider the compound shown here: Cc1cccnc1C1CCCN1Cc1ncccc1CN1CCOCC1 (stereo not shown) What is its recorded Papp A→B at 90 min, 10 μM?
Out: 0.1 to 10 ×10⁻⁶ cm/s

In: Consider the compound shown here: Cc1cccnc1C1CCCN1Cc1cn2c(N3CCN(C)CC3)cccc2n1 (stereo not shown) What is its recorded Papp A→B at 90 min, 10 μM?
Out: 0.1 to 10 ×10⁻⁶ cm/s

In: Consider the compound shown here: N#CCCc1c(CN2CCCC2c2ccccn2)nc2ccccn12 (stereo not shown) What is its recorded Papp A→B at 90 min, 10 μM?
Out: 10 to 30 ×10⁻⁶ cm/s

In: Consider the compound shown here: CN1CCN(c2c(CN3CCCC3c3ccccn3)nc3cc(F)ccn23)CC1 (stereo not shown) What is its recorded Papp A→B at 90 min, 10 μM?
Out: 0.1 to 10 ×10⁻⁶ cm/s

In: Consider the compound shown here: O=C1CN(c2c(CN3CCCC3c3ccccn3)nc3ccccn23)CCN1 (stereo not shown) What is its recorded Papp A→B at 90 min, 10 μM?
Out: 0.1 to 10 ×10⁻⁶ cm/s

In: Consider the compound shown here: CN1CCN(c2cccc3nc(C4CCCN4Cc4ncccn4)[nH]c23)CC1 (stereo not shown) What is its recorded Papp A→B at 90 min, 10 μM?
Out: 0.1 to 10 ×10⁻⁶ cm/s

In: Consider the compound shown here: Cc1cccnc1C1CCCN1Cc1nccn1Cc1ccncc1 (stereo not shown) What is its recorded Papp A→B at 90 min, 10 μM?
Out: 10 to 30 ×10⁻⁶ cm/s

In: Consider the compound shown here: Cc1cccnc1CN1CCCC1c1nc2cccc(N3CCN(C)CC3)c2[nH]1 (stereo not shown) What is its recorded Papp A→B at 90 min, 10 μM?
Out: 10 to 30 ×10⁻⁶ cm/s

In: Consider the compound shown here: Cc1cccnc1C1CCCN1Cc1nc2ccccn2c1CN1CCOCC1 (stereo not shown) What is its recorded Papp A→B at 90 min, 10 μM?
Out: 0.1 to 10 ×10⁻⁶ cm/s

In: Consider the compound shown here: CN1CCN(c2c(CN3CCCC3c3ncc[nH]3)nc3ccccn23)CC1 (stereo not shown) What is its recorded Papp A→B at 90 min, 10 μM?
Out: 0.1 to 10 ×10⁻⁶ cm/s

----------
PROTOCOL_NOTES: Mouse brain uptake assay (pharmacokinetics and brain penetration after IV administration)
Type: in vivo, Male CD1 Mice
CONDITION_SET: male, CD1; mouse brain, 3 mg/kg IV, 0-24 h, 4 time points; read-out: AUClast (b) (area under the brain drug concentration-time curve)
MEASURED_ATTRIBUTE: AUC(0-t) (ng·h/mL)
Note: unit ng·h/mL is implicit; provide only the numeric part.

In: Consider the compound shown here: Cc1cccnc1C1CCCN1Cc1cn2c(N3CCN(C)C4(CC4)C3)cccc2n1 (centres unmarked) [Compound I-29] What is its recorded AUC(0-t)?
Out: 394

In: Consider the compound shown here: Cc1cccnc1C1CCCN1Cc1nc2cccc(N3CCN(C4CC4)CC3)c2[nH]1 (centres unmarked) [Compound I-31] What is its recorded AUC(0-t)?
Out: 7260

----------
STUDY_TARGET: CXCR4 (Jurkat cells expressing CXCR4) (Homo sapiens)
Construct: Jurkat cells expressing CXCR4; endogenous in cells
Sequence (P61073 whole entry): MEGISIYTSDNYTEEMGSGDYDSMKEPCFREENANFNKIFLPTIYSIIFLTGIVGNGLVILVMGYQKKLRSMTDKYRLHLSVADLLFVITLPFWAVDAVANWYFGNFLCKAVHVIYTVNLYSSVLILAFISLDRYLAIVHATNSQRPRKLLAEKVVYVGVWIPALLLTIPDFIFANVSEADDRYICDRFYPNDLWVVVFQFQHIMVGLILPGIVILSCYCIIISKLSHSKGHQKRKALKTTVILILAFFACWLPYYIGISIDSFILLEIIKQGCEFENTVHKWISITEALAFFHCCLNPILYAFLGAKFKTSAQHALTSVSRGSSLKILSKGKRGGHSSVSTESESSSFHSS
PROTOCOL_NOTES: Chemokine (CXCL12-AF647) binding inhibition assay
CONDITION_SET: CXCL12-AF647 25 ng/mL, read-out: IC50 CXCL-12 binding Jurkat
Method: Chemokine (CXCL12-AF647) Binding Inhibition Assay Jurkat cells expressing CXCR4 were washed once with assay buffer (Hanks' balanced salt solution with 20 mM HEPES buffer and 0.2% bovine serum albumin, pH 7.4) and then incubated for 15 min at room temperature with the test compounds diluted in assay buffer at dose-dependent concentrations. Subsequently, CXCL12-AF647 (25 ng/mL) was added to the compound-incubated cells. The cells were incubated for 30 min at room temperature. […]
pIC50: −log10 of the molar value.
Task for the reader: assign each of the following compounds its reported pIC50.

In: Consider the compound shown here: Cc1cccnc1C1CCCN1Cc1nc2ccccn2c1CCC#N (stereo not drawn) What is its recorded pIC50?
Out: 6.00 to 7.00

In: Consider the compound shown here: Cc1cccnc1C1CCCN1Cc1nc2cccc(N3CCN(C)CC3)c2o1 (stereo not drawn) What is its recorded pIC50?
Out: 6.00 to 7.00

In: Consider the compound shown here: CN1CCN(c2c(CN3CCCC3c3ncccc3Cl)nc3ccccn23)CC1 (stereo not drawn) What is its recorded pIC50?
Out: 7.00 to 11.00

In: Consider the compound shown here: c1ccc(C2CCCN2Cc2nc3ccccn3c2N2CCOCC2)nc1 (stereo not drawn) What is its recorded pIC50?
Out: 6.00 to 7.00

In: Consider the compound shown here: Cc1cccnc1C1CCCN1Cc1nccn1CCCCN1CCOCC1 (stereo not drawn) What is its recorded pIC50?
Out: 7.00 to 11.00

In: Consider the compound shown here: Cc1cccnc1C1CCCN1Cc1nccn1CC1CCOCC1 (stereo not drawn) What is its recorded pIC50?
Out: 6.00 to 7.00

In: Consider the compound shown here: Cc1cccnc1C1CCCN1Cc1nc2cccc(N3CCN(C)CC3)n2c1CO (stereo not drawn) What is its recorded pIC50?
Out: 7.00 to 11.00

In: Consider the compound shown here: Cc1cccnc1C1CCCN1C(=O)c1cn2c(N3CCN(C)CC3)cccc2n1 (stereo not drawn) What is its recorded pIC50?
Out: ≤ 6.00

In: Consider the compound shown here: Cc1cccnc1C1CCCN1Cc1nccn1-c1ccccn1 (stereo not drawn) What is its recorded pIC50?
Out: ≤ 6.00

----------
PROTOCOL_NOTES: in vitro
CONDITION_SET: human, Caco-2, pH 7.4
MEASURED_ATTRIBUTE: Papp B→A at 90 min, 10 μM

In: Consider the molecule shown here: Cc1cccnc1C1CCCN1Cc1nccn1Cc1ccccn1 (stereo not shown) What is its recorded Papp B→A at 90 min, 10 μM?
Out: > 30 ×10⁻⁶ cm/s

In: Consider the molecule shown here: Cc1cccnc1C1CCCN1Cc1ncccc1CN1CCOCC1 (stereo not shown) What is its recorded Papp B→A at 90 min, 10 μM?
Out: > 30 ×10⁻⁶ cm/s

In: Consider the molecule shown here: Cc1cccnc1C1CCCN1Cc1nccn1Cc1ccncc1 (stereo not shown) What is its recorded Papp B→A at 90 min, 10 μM?
Out: 10 to 30 ×10⁻⁶ cm/s

In: Consider the molecule shown here: Cc1cccnc1C1CCCN1Cc1nccn1CC1CCN(C)CC1 (stereo not shown) What is its recorded Papp B→A at 90 min, 10 μM?
Out: 10 to 30 ×10⁻⁶ cm/s

In: Consider the molecule shown here: Cc1cccnc1C1CCCN1Cc1nccn1CC1CCN(c2ccccn2)CC1 (stereo not shown) What is its recorded Papp B→A at 90 min, 10 μM?
Out: > 30 ×10⁻⁶ cm/s

In: Consider the molecule shown here: c1ccc(C2CCCN2Cc2ncccc2-n2ccnc2)nc1 (stereo not shown) What is its recorded Papp B→A at 90 min, 10 μM?
Out: > 30 ×10⁻⁶ cm/s

In: Consider the molecule shown here: CN1CCN(c2cccc3nc(CN4CCCC4c4ncc[nH]4)cn23)CC1 (stereo not shown) What is its recorded Papp B→A at 90 min, 10 μM?
Out: 10 to 30 ×10⁻⁶ cm/s

In: Consider the molecule shown here: CN1CCN(c2cccc3nc(C4CCCN4Cc4ccccn4)[nH]c23)CC1 (stereo not shown) What is its recorded Papp B→A at 90 min, 10 μM?
Out: > 30 ×10⁻⁶ cm/s

In: Consider the molecule shown here: CN1CCN(c2c(C3CCCN3Cc3ncccn3)nc3ccccn23)CC1 (stereo not shown) What is its recorded Papp B→A at 90 min, 10 μM?
Out: > 30 ×10⁻⁶ cm/s

In: Consider the molecule shown here: CN1CCN(c2cccc3nc(CN4CCCC4c4ccccn4)[nH]c23)CC1 (stereo not shown) What is its recorded Papp B→A at 90 min, 10 μM?
Out: > 30 ×10⁻⁶ cm/s

In: Consider the molecule shown here: Cc1c(CN2CCCC2c2ncccc2Cl)nc2cccc(N3CCN(C)CC3)n12 (stereo not shown) What is its recorded Papp B→A at 90 min, 10 μM?
Out: 10 to 30 ×10⁻⁶ cm/s

In: Consider the molecule shown here: CN1CCN(c2cccc3[nH]c(CN4CCCC4c4ncccc4Cl)nc23)CC1 (stereo not shown) What is its recorded Papp B→A at 90 min, 10 μM?
Out: 10 to 30 ×10⁻⁶ cm/s

In: Consider the molecule shown here: Cc1cccnc1C1CCCN1Cc1ncccc1CC1CCN(C)CC1 (stereo not shown) What is its recorded Papp B→A at 90 min, 10 μM?
Out: > 30 ×10⁻⁶ cm/s

In: Consider the molecule shown here: c1ccc(C2CCCN2Cc2nc3ccccn3c2N2CCOCC2)nc1 (stereo not shown) What is its recorded Papp B→A at 90 min, 10 μM?
Out: > 30 ×10⁻⁶ cm/s

In: Consider the molecule shown here: CN1CCN(c2c(CN3CCCC3c3ccccn3)nc3ccccn23)CC12CC2 (stereo not shown) What is its recorded Papp B→A at 90 min, 10 μM?
Out: 10 to 30 ×10⁻⁶ cm/s

In: Consider the molecule shown here: Cc1cccnc1C1CCCN1Cc1nc2ccccn2c1CN1CCOCC1 (stereo not shown) What is its recorded Papp B→A at 90 min, 10 μM?
Out: > 30 ×10⁻⁶ cm/s

In: Consider the molecule shown here: CN1CCN(c2c(CN3CCCC3c3ccccn3)nc3ccccn23)CC1 (stereo not shown) What is its recorded Papp B→A at 90 min, 10 μM?
Out: 10 to 30 ×10⁻⁶ cm/s

In: Consider the molecule shown here: Cc1cccnc1C1CCCN1Cc1nccn1CC1CCOCC1 (stereo not shown) What is its recorded Papp B→A at 90 min, 10 μM?
Out: > 30 ×10⁻⁶ cm/s

In: Consider the molecule shown here: Cc1cccnc1C1CCCN1Cc1ccccn1 (stereo not shown) What is its recorded Papp B→A at 90 min, 10 μM?
Out: 10 to 30 ×10⁻⁶ cm/s

In: Consider the molecule shown here: Cc1cccnc1C1CCCN1Cc1nc2ccccc2n1CC1CCN(C)CC1 (stereo not shown) What is its recorded Papp B→A at 90 min, 10 μM?
Out: > 30 ×10⁻⁶ cm/s

In: Consider the molecule shown here: CN1CCN(c2c(CN3CCCC3c3nccn3C)nc3ccccn23)CC1 (stereo not shown) What is its recorded Papp B→A at 90 min, 10 μM?
Out: 10 to 30 ×10⁻⁶ cm/s

In: Consider the molecule shown here: CN1CCN(c2c(CN3CCCC3c3nccs3)nc3ccccn23)CC1 (stereo not shown) What is its recorded Papp B→A at 90 min, 10 μM?
Out: 10 to 30 ×10⁻⁶ cm/s

In: Consider the molecule shown here: N#CCCc1cccc2nc(CN3CCCC3c3ccccn3)cn12 (stereo not shown) What is its recorded Papp B→A at 90 min, 10 μM?
Out: > 30 ×10⁻⁶ cm/s

In: Consider the molecule shown here: CN1CCN(c2c(CN3CCCC3c3ccc(F)cn3)nc3ccccn23)CC1 (stereo not shown) What is its recorded Papp B→A at 90 min, 10 μM?
Out: 0.1 to 10 ×10⁻⁶ cm/s

In: Consider the molecule shown here: Cc1cccnc1C1CCCN1Cc1nccn1CC1CCN(C2CC2)CC1 (stereo not shown) What is its recorded Papp B→A at 90 min, 10 μM?
Out: 10 to 30 ×10⁻⁶ cm/s

In: Consider the molecule shown here: CN1CCN(c2c(C3CCCN3Cc3ccccn3)nc3ccccn23)CC1 (stereo not shown) What is its recorded Papp B→A at 90 min, 10 μM?
Out: > 30 ×10⁻⁶ cm/s

In: Consider the molecule shown here: Cc1cccnc1C1CCCN1Cc1nc2ccccc2n1C1CCN(C)CC1 (stereo not shown) What is its recorded Papp B→A at 90 min, 10 μM?
Out: 10 to 30 ×10⁻⁶ cm/s

In: Consider the molecule shown here: Cc1cccnc1C1CCCN1Cc1cn2c(N3CCN(C)C4(CC4)C3)cccc2n1 (stereo not shown) What is its recorded Papp B→A at 90 min, 10 μM?
Out: 10 to 30 ×10⁻⁶ cm/s

Hello, the source for this data is patent US11332470B2, in case you need it.
